# test system: recombinant human Muscarinic M1 receptor (Homo sapiens, UniProt P11229)
# Sequence (P11229 whole entry): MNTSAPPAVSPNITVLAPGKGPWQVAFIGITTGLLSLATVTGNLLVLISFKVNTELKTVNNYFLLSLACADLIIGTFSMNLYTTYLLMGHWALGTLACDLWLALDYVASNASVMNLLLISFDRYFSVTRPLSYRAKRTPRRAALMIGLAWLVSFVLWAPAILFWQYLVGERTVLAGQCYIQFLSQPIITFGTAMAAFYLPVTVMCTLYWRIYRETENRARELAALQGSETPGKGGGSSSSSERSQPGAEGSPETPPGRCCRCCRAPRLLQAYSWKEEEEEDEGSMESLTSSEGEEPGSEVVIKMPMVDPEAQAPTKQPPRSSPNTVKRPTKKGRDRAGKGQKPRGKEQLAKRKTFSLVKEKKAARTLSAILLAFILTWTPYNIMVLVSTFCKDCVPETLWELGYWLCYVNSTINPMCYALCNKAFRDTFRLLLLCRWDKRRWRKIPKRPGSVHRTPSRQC
# procedure text: Allosteric potency EC50 for Muscarinic M1 receptor, CHO pCRE-Luc reporter cell-based assay with EC20 of acetylcholine
# recorded conditions: CHO cells, human M1, luciferase reporter, in presence of EC20 of acetylcholine, 4 h
// values below are reported EC50

> print(dat)
                                   compound   result
1  Cc1c(Cc2ccc(Cl)nc2)cc(C(=O)NC2CCOC[C@@H]2O)c2ncccc12 (some centres unmarked)  1240 nM
2  Cc1c(Cc2ccc(-c3cnn(C)c3)c(F)c2)cc(C(=O)N[C@H]2CCCC[C@@H]2O)c2ncccc12   185 nM
3  Cn1cc(-c2ccc(Cc3cc(C(=O)N[C@H]4CCCC[C@@H]4O)c4nccn4c3)c(F)c2)cn1  3340 nM
4  Cc1c(Cc2ccc(-c3cnn(C)c3)cc2F)cc(C(=O)N[C@@H]2CCCC[C@H]2O)c2c1ncn2C  1060 nM
5  Cc1c(Cc2cccc(F)c2F)cc(C(=O)N[C@H]2CCCC[C@@H]2O)c2ncccc12  1680 nM

Challenge: Reported EC50 for O=C(N[C@H]1CCCC[C@@H]1O)c1cc(Cc2cccc(F)c2F)cn2ccnc12 : what is it?
Response given: 3820 nM

Challenge: Reported EC50 for Cc1c(Cc2ccc(-c3cnn(C)c3)c(F)c2F)cc(C(=O)N[C@H]2CCCC[C@@H]2O)c2ncccc12 : what is it?
Response given: 168 nM

Challenge: Reported EC50 for Cc1c(Cc2ccnc(Cl)c2)cc(C(=O)N[C@H]2CCCC[C@@H]2O)c2ncccc12 : what is it?
Response given: 719 nM

====

# procedure text: Rodent pharmacokinetic study
# Format: in vivo, Male Wistar rats
# recorded conditions: male, Wistar; rat, oral 3 mg/kg, plasma
readout type: AUC(0-t) (ng·h/mL)
Numeric answer only, unit ng·h/mL assumed.

> print(dat)
                                   compound  readout.type  units.of.measure  result
1  Cc1c(Cc2ccc(-n3cccn3)cc2)cc(C(=O)N[C@H]2CCCC[C@@H]2O)c2c1NCCO2 [Example 17]      AUC(0-t)           ng·h/mL     705
2  Cc1c(Cc2ccc(Cl)nc2)cc(C(=O)N[C@H]2CCCC[C@@H]2O)c2ncccc12 [Example 6]      AUC(0-t)           ng·h/mL    1000
3  Cc1c(Cc2ccc(-c3cnn(C)c3)c(F)c2F)cc(C(=O)N[C@H]2CCCC[C@@H]2O)c2ncccc12 [Example 8]      AUC(0-t)           ng·h/mL   18400

Please turn your attention to the following entry.
Challenge: Reported AUC(0-t) for Cc1c(Cc2ccccc2)cc(C(=O)N[C@H]2CCCC[C@@H]2O)c2ncccc12 [Example 14] : what is it?
Response given: 137

====

# test system: recombinant human Muscarinic M1 receptor (Homo sapiens, UniProt P11229)
# procedure text: Allosteric potency EC50 for Muscarinic M1 receptor, CHO pCRE-Luc reporter cell-based assay with EC20 of acetylcholine
# recorded conditions: CHO cells, human M1, luciferase reporter, in presence of EC20 of acetylcholine, 4 h
readout type: EC50 (nM)
Numeric answer only, unit nM assumed.

> print(dat)
                    structure.smiles.string  result
1  Cc1c(Cc2ccc(-n3cccn3)cc2)cc(C(=O)N[C@H]2CCCC[C@@H]2O)c2nccn12     178
2  Cc1nc2c(C(=O)N[C@H]3CCCC[C@@H]3O)cc(Cc3ccc(-n4cccn4)cc3)c(C)c2[nH]1     694

Challenge: Reported EC50 for Cc1c(Cc2ccc(-c3cscn3)cc2)cc(C(=O)N[C@@H]2CCCC[C@H]2O)c2c1ncn2C : what is it?
Response given: 10000

Challenge: Reported EC50 for Cc1c(Cc2ccc(-c3cnn(C)c3)nc2)cc(C(=O)N[C@@H]2CCCC[C@H]2O)c2c1ncn2C : what is it?
Response given: 208

Challenge: Reported EC50 for Cc1c(Cc2ccc(-c3cnn(C)c3)nc2)cc(C(=O)N[C@H]2CCCC[C@@H]2O)c2ncccc12 : what is it?
Response given: 232

Challenge: Reported EC50 for Cc1cc2c(C)c(Cc3ccc(-c4cnn(C)c4)cc3)cc(C(=O)N[C@H]3CCCC[C@@H]3O)c2o1 : what is it?
Response given: 299

Challenge: Reported EC50 for Cc1c(Cc2ccc(-c3cnn(C)c3)cc2)cc(C(=O)N[C@H]2CCCC[C@@H]2O)c2nc[nH]c12 : what is it?
Response given: 105

Challenge: Reported EC50 for Cc1c(Cc2ccc(-c3cnn(C)c3)cc2F)cc(C(=O)N[C@H]2CCCC[C@@H]2O)c2ncccc12 : what is it?
Response given: 100

Challenge: Reported EC50 for Cc1c(Cc2ccc(-c3cnn(C)c3)cc2F)cc(C(=O)N[C@H]2CCCC[C@@H]2O)c2nccn12 : what is it?
Response given: 28

Challenge: Reported EC50 for Cn1cc(-c2ccc(Cc3cc(C(=O)N[C@H]4CCCC[C@@H]4O)c4nccn4c3)cc2)cn1 : what is it?
Response given: 444

Challenge: Reported EC50 for Cc1c(Cc2ccc(-c3cnn(C)c3)cc2)cc(C(=O)N[C@H]2CCCC[C@@H]2O)c2c1NCCO2 : what is it?
Response given: 798

====

# procedure text: Rodent pharmacokinetic study
# Assay type: in vivo, Male Wistar rats
# recorded conditions: male, Wistar; rat, oral 3 mg/kg, plasma
readout type: Tmax

Reference set, count: 3
> print(dat)
                    structure.smiles.string  readout.type      result
1  Cc1c(Cc2cccc(F)c2F)cc(C(=O)N[C@H]2CCCC[C@@H]2O)c2ncccc12          Tmax  0.5 to 2 h
2  Cc1c(Cc2ccc(Cl)nc2)cc(C(=O)N[C@H]2CCCC[C@@H]2O)c2ncccc12          Tmax       0.5 h
3  Cc1c(Cc2ccc(-c3cnn(C)c3)cc2)cc(C(=O)N[C@H]2CCCC[C@@H]2O)c2ncccc12          Tmax         2 h

Please turn your attention to the following entry.
Challenge: Reported Tmax for Cc1c(Cc2ccc(-n3cccn3)cc2)cc(C(=O)N[C@H]2CCCC[C@@H]2O)c2c1NCCO2 : what is it?
Response given: 1 h

====

# test system: recombinant human Muscarinic M1 receptor (Homo sapiens, UniProt P11229)
# procedure text: Allosteric potency EC50 for Muscarinic M1 receptor, CHO pCRE-Luc reporter cell-based assay with EC20 of acetylcholine
# recorded conditions: CHO cells, human M1, luciferase reporter, in presence of EC20 of acetylcholine, 4 h
readout type: EC50 (nM)
Numeric answer only, unit nM assumed.

> print(dat)
                    structure.smiles.string  readout.type  result
1  Cc1c(Cc2cccnc2Cl)cc(C(=O)N[C@@H]2CCCC[C@H]2O)c2nc[nH]c12          EC50    2820
2  Cc1c(Cc2ccc(-c3cscn3)cc2)cc(C(=O)N[C@H]2CCCC[C@@H]2O)c2ncccc12          EC50     258
3  Cc1c(Cc2ccc(Cl)nc2)cc(C(=O)N[C@H]2CCCC[C@@H]2O)c2ncccc12          EC50    1670
4  Cc1c(Cc2ccc(F)c(F)c2)cc(C(=O)N[C@@H]2CCCC[C@H]2O)c2nc[nH]c12          EC50    2280
5  Cc1c(Cc2ccccc2F)cc(C(=O)N[C@H]2CCCC[C@@H]2O)c2ncccc12          EC50    2340
6  Cn1cc(-c2ccc(Cc3cc(C(=O)N[C@@H]4CCCC[C@H]4O)c4nc[nH]c4c3)cc2)cn1          EC50     449
7  Cc1c(Cc2ccc(-c3cnn(C)c3)nc2)cc(C(=O)N[C@@H]2CCCC[C@H]2O)c2nc[nH]c12          EC50     237

Please turn your attention to the following entry.
Challenge: Reported EC50 for Cc1c(Cc2ccc(-c3cnn(C)c3)c(F)c2F)cc(C(=O)N[C@H]2CCCC[C@@H]2O)c2[nH]cnc12 : what is it?
Response given: 465

====

# procedure text: Rodent brain penetration study
# Assay type: in vivo, Male Wistar rats
# recorded conditions: male, Wistar, brain and plasma, po; rat, 3 mg/kg, p.o. @ 1.0 hr, brain-plasma ratio; read-out: Single dose Rat Brain Penetration (Cb/Cp)
# Description: Rodent Brain Penetration Study Male Wistar rats (260±40 grams) were used as experimental animals. Three animals were housed in each cage. Animals were given water and food ad libitum throughout the experiment and maintained on a 12 h light/dark cycle. Brain penetration was determined in discrete manner in rats. […] The test compounds were quantified in plasma and brain homogenate by qualified LC-MS/MS method using suitable extraction technique. […]
readout type: Kp at 1 h
Enter a number only.

> print(dat)
                    structure.smiles.string  result
1  Cc1c(Cc2ccc(-c3cnn(C)c3)cc2F)cc(C(=O)N[C@H]2CCCC[C@@H]2O)c2ncccc12    0.14

Challenge: Reported Kp at 1 h for Cc1c(Cc2cccc(F)c2F)cc(C(=O)N[C@H]2CCCC[C@@H]2O)c2ncccc12 : what is it?
Response given: 1.74

Challenge: Reported Kp at 1 h for Cc1c(Cc2ccc(-c3cnn(C)c3)cc2)cc(C(=O)N[C@H]2CCCC[C@@H]2O)c2ncccc12 : what is it?
Response given: 0.78

Challenge: Reported Kp at 1 h for Cc1c(Cc2ccnc(Cl)c2)cc(C(=O)N[C@H]2CCCC[C@@H]2O)c2ncccc12 : what is it?
Response given: 0.54
